These measurements were taken from patent US20040248202A1.

Biological target: transducin (Homo sapiens, UniProt P11488)
Sequence (P11488 2-350 limits assumed): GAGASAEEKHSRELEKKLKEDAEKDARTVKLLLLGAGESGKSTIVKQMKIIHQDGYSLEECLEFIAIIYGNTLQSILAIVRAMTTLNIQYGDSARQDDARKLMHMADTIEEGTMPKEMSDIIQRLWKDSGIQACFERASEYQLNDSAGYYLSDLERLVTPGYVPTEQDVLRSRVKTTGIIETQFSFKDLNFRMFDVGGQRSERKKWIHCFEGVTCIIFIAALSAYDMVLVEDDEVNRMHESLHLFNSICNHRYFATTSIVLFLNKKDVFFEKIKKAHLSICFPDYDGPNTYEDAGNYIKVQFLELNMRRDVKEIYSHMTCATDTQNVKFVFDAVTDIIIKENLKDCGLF
Sequence (P62873 2-340 partner limits assumed): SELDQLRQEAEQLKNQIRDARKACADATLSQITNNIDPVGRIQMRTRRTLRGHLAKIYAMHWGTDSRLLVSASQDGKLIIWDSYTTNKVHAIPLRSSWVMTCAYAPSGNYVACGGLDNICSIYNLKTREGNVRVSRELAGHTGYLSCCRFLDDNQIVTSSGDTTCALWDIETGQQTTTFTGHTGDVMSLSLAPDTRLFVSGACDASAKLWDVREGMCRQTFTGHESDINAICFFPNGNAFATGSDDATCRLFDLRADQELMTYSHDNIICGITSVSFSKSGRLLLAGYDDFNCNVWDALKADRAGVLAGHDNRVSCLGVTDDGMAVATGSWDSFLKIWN
Sequence (P63211 2-71 partner limits assumed): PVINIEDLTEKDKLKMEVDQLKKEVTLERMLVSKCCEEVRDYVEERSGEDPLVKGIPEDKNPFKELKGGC
Assay: GTPyS uptake assay: effect of BR-rhodopsin loop 3 chimeras on GDP-GTP exchange on transducin
Format: biochemical
Settings: 10 Minutes, new culture of 3C and three new chimeras
METRIC_NAME: Activation (×100%) Over Basal Exchange

INSERT INTO assay_data (molecule, test_value) VALUES
  ('3B: bacteriorhodopsin chimera, loop 3 replaced by bovine rhodopsin Y223-T251; loop amino acid sequence SEQ ID NO:28 (protein) QAQITGRPEWIWLALGTALMGLGTLYFLVKGMGVSDPDAKKFYAITTLVPAIAFTMYLSMLLGYGLTMVPFGGEQNPIYWARYADWLFTTPLLLLDLALLVDADQGTILALVGADGIMIGTGLVGALTKVYSYRFVWWAISTAAMLYILYVLFFGFTYGQLVFTVKEAAAQQQESATTQKAEKEVTVASTFKVLRNVTVVLWSAYPVVWLIGSEGAGIVPLNIETLLFMVLDVSAKVGFGLILLRSRAIFGEAEAPEPSAGDGAAATSD', '1.17 ×100%'),
  ('3E: bacteriorhodopsin chimera, loop 3 replaced by bovine rhodopsin G224-M253; loop amino acid sequence SEQ ID NO:34 (protein) QAQITGRPEWIWLALGTALMGLGTLYFLVKGMGVSDPDAKKFYAITTLVPAIAFTMYLSMLLGYGLTMVPFGGEQNPIYWARYADWLFTTPLLLLDLALLVDADQGTILALVGADGIMIGTGLVGALTKVYSYRFVWWAISTAAMLYILYVLFFGFTGQLVFTVKEAAAQQQESATTQKAEKEVTRMVASTFKVLRNVTVVLWSAYPVVWLIGSEGAGIVPLNIETLLFMVLDVSAKVGFGLILLRSRAIFGEAEAPEPSAGDGAAATSD', '1.46 ×100%');

Now look at this entry.
Please give the documented Activation (×100%) Over Basal Exchange of 3C: bacteriorhodopsin chimera, loop 3 replaced by bovine rhodopsin Y223-M253; loop amino acid sequence SEQ ID NO:30 (protein) QAQITGRPEWIWLALGTALMGLGTLYFLVKGMGVSDPDAKKFYAITTLVPAIAFTMYLSMLLGYGLTMVPFGGEQNPIYWARYADWLFTTPLLLLDLALLVDADQGTILALVGADGIMIGTGLVGALTKVYSYRFVWWAISTAAMLYILYVLFFGFTYGQLVFTVKEAAAQQQESATTQKAEKEVTRMVASTFKVLRNVTVVLWSAYPVVWLIGSEGAGIVPLNIETLLFMVLDVSAKVGFGLILLRSRAIFGEAEAPEPSAGDGAAATSD 1.44 ×100%
